Recorded inhibition by entry
# system-tested: UniProt P11387
# Sequence (P11387 whole entry): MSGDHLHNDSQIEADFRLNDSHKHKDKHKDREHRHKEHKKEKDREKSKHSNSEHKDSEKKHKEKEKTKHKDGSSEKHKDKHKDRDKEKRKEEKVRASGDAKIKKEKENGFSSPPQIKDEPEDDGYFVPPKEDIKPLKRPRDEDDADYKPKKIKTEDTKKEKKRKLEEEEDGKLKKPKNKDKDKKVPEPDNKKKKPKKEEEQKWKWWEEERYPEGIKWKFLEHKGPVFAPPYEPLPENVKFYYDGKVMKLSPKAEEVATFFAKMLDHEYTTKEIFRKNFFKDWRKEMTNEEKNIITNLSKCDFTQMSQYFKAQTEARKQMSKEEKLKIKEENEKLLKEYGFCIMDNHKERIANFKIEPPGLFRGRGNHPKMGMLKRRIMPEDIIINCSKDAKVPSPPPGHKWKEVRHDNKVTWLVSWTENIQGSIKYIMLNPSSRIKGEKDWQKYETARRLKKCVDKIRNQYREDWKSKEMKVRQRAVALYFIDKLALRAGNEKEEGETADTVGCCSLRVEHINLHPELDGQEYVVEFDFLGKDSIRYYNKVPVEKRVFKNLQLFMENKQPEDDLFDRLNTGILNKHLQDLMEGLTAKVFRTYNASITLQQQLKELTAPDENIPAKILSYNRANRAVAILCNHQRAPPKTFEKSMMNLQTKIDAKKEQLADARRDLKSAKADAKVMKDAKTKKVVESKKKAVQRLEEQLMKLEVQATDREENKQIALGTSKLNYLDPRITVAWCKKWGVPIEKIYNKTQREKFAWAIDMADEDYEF
# test: Inhibition of recombinant human Top1 expressed in Saccharomyces cerevisiae null strain RS190 assessed as decrease in relaxation of supercoiled plasmid DNA at 100 uM using supercoiled plasmid DNA as substrate incubated for 1 min by red staining based DNA relaxation assay relative to camptothecin
Answer in %, number only, no unit symbol.

Answered cases to consult:
Cc1ccc2c(c1)-c1nc3cccnc3c(-c3ccccc3)c1CO2; 2
O=C1Oc2ccc(F)cc2[C@H]2Nc3cccnc3[C@@H](c3ccccc3)[C@H]12 (relative stereo); 25
COc1ccc2c(n1)[C@@H](c1ccccc1)[C@@H]1C(=O)Oc3ccccc3[C@H]1N2 (relative stereo); 4
Fc1ccc2c(c1)[C@H]1Nc3cccnc3[C@@H](c3ccccc3)[C@@H]1CO2 (relative stereo); 1
COc1ccc2c(n1)[C@@H](c1ccccc1)[C@@H]1COc3ccccc3[C@H]1N2 (relative stereo); 26

So for c1ccc([C@@H]2c3ncccc3N[C@@H]3c4ccccc4OC[C@@H]23)cc1 (relative stereo) , the logged inhibition turned out to be 4

Entry under test: O=c1oc2ccccc2c2nc3cccnc3c(-c3ccccc3)c12 . Its inhibition was 2

Looking up COc1ccc(-c2c3c(nc4cccnc24)-c2ccccc2OC3)cc1 , I see its inhibition listed as 30
